kcat/KM values for the proteins below.
- TARGET_OR_SYSTEM: Factor X (FX), P00742
- Sequence (P00742 whole entry, looked up): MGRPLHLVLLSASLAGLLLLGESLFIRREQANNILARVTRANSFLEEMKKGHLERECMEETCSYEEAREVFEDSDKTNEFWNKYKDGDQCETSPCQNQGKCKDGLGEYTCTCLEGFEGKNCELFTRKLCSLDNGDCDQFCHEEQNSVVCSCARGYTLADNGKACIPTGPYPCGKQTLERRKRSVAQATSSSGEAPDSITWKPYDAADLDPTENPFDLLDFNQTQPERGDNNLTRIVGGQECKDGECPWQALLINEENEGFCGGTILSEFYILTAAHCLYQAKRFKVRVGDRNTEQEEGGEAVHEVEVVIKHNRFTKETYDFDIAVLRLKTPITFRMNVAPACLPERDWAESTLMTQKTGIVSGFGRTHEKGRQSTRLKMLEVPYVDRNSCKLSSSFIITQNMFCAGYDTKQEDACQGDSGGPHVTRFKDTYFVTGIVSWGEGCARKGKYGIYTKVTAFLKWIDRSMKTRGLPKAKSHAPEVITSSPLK

| PROTEIN | kcat/KM / M⁻¹ s⁻¹ |
| --- | --- |
| FIXa-I251S/R318Y/R338E/E410N (protein) chain 1: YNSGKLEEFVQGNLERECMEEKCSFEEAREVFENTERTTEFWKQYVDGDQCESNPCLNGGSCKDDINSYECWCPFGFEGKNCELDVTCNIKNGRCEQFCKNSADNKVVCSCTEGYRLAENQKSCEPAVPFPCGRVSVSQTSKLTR chain 2: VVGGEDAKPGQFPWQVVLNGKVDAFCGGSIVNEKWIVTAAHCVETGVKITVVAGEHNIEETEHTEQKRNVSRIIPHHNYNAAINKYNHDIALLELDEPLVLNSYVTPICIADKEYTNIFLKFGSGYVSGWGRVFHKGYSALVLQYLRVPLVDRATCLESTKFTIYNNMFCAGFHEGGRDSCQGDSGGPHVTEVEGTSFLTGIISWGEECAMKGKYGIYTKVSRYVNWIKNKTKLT | 3.9e+08 |
| FIXa variant D104N/K106S/R318Y/R338E/E410N (protein) chain 1: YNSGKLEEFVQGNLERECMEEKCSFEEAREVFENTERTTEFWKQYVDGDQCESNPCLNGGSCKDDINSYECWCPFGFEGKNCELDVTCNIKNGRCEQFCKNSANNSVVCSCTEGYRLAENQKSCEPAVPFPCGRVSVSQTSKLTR chain 2: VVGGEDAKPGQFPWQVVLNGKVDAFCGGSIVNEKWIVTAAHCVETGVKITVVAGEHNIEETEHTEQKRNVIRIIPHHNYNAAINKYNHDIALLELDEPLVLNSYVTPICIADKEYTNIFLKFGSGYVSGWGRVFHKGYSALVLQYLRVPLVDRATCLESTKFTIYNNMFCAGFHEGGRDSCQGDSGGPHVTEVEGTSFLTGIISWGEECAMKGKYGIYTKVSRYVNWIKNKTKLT | 2.6e+08 |
